# experimentalTarget: PSG (PSD-95)
# procedureSummary: FP displacement (competition) of FITC-15 AA CRIPT by library peptide, IC50 and Ki
# conditionInfo: read-out: Ki (µM), PSG; FP displacement of FITC-15 AA CRIPT probe by PSD library peptide; protein PSG (wild type)
Labelling field: enter yes if recorded Ki is less than 500 µM. Enter no if it equals or exceeds that cut-off.

CC(=O)N[C@@H](Cc1ccc(O)cc1)C(=O)N[C@@H](Cc1c[nH]cn1)C(=O)N1CCC[C@H]1C(=O)N[C@@H](Cc1c[nH]cn1)C(=O)N1CCC[C@H]1C(=O)N[C@@H](Cc1c[nH]cn1)C(=O)N1CCC[C@H]1C(=O)N[C@@H](Cc1c[nH]cn1)C(=O)N[C@@H](CO)C(=O)N[C@@H](Cc1c[nH]cn1)C(=O)N[C@@H](CO)C(=O)N[C@H](C(=O)N[C@H](C(=O)N[C@@H](CCCNC(=N)N)C(=O)N[C@H](C(=O)O)C(C)C)[C@@H](C)O)[C@@H](C)O [NLGN1]	yes
CC(=O)N[C@@H](Cc1ccc(O)cc1)C(=O)N[C@@H](CCCCN)C(=O)N[C@@H](CCCCN)C(=O)N[C@H](C(=O)N[C@@H](CC(C)C)C(=O)N[C@@H](CC(=O)O)C(=O)N[C@H](C(=O)N[C@@H](CCCCN)C(=O)N[C@@H](CC(N)=O)C(=O)N[C@@H](Cc1ccc(O)cc1)C(=O)N[C@@H](CCCCN)C(=O)N[C@@H](CCC(N)=O)C(=O)N[C@H](C(=O)N[C@@H](CO)C(=O)N[C@H](C(=O)O)C(C)C)[C@@H](C)O)[C@@H](C)O)C(C)C [CRIPT]	yes
CC(=O)N[C@@H](Cc1ccc(O)cc1)C(=O)N[C@@H](Cc1c[nH]cn1)C(=O)N[C@@H](Cc1c[nH]cn1)C(=O)N[C@H](C(=O)N[C@@H](CO)C(=O)N[C@@H](Cc1ccc(O)cc1)C(=O)N[C@H](C(=O)N[C@@H](C)C(=O)N[C@@H](CO)C(=O)N[C@@H](CCCCN)C(=O)N[C@H](C(=O)N[C@@H](CCC(=O)O)C(=O)N[C@H](C(=O)N[C@H](C(=O)N[C@H](C(=O)O)C(C)C)[C@@H](C)O)C(C)C)[C@@H](C)O)[C@@H](C)O)[C@@H](C)O [SHSA6]	no
CC(=O)N[C@@H](Cc1ccc(O)cc1)C(=O)N[C@@H](CC(=O)O)C(=O)N[C@@H](CO)C(=O)N[C@H](C(=O)N[C@@H](CCC(=O)O)C(=O)N[C@@H](CCC(N)=O)C(=O)N[C@@H](CO)C(=O)N[C@@H](CC(=O)O)C(=O)N[C@H](C(=O)N[C@@H](CCCNC(=N)N)C(=O)N[C@@H](Cc1ccccc1)C(=O)N[C@@H](CO)C(=O)N[C@@H](CO)C(=O)N[C@@H](C)C(=O)N[C@H](C(=O)O)C(C)C)C(C)C)[C@@H](C)O [GPER1]	yes

Could you now consider this next compound?
IN: Criterion: Ki strictly below 500 µM. Is it met by CC[C@H](C)[C@H](NC(=O)[C@H](CCC(=O)O)NC(=O)[C@@H](NC(=O)[C@H](CO)NC(=O)[C@H](CCC(=O)O)NC(=O)[C@@H](NC(=O)[C@H](CCCNC(=N)N)NC(=O)[C@H](CCC(=O)O)NC(=O)[C@H](CC(C)C)NC(=O)[C@H](CCCNC(=N)N)NC(=O)[C@H](CO)NC(=O)[C@@H]1CCCN1C(=O)[C@@H](NC(=O)[C@H](Cc1c[nH]c2ccccc12)NC(=O)[C@H](Cc1ccc(O)cc1)NC(C)=O)[C@@H](C)O)[C@@H](C)CC)[C@@H](C)O)C(=O)O [LZTS3] ?
OUT: no
